Molecular target: CFTR-mediated chloride transport (Homo sapiens, UniProt P13569)
Sequence (P13569 whole entry, looked up): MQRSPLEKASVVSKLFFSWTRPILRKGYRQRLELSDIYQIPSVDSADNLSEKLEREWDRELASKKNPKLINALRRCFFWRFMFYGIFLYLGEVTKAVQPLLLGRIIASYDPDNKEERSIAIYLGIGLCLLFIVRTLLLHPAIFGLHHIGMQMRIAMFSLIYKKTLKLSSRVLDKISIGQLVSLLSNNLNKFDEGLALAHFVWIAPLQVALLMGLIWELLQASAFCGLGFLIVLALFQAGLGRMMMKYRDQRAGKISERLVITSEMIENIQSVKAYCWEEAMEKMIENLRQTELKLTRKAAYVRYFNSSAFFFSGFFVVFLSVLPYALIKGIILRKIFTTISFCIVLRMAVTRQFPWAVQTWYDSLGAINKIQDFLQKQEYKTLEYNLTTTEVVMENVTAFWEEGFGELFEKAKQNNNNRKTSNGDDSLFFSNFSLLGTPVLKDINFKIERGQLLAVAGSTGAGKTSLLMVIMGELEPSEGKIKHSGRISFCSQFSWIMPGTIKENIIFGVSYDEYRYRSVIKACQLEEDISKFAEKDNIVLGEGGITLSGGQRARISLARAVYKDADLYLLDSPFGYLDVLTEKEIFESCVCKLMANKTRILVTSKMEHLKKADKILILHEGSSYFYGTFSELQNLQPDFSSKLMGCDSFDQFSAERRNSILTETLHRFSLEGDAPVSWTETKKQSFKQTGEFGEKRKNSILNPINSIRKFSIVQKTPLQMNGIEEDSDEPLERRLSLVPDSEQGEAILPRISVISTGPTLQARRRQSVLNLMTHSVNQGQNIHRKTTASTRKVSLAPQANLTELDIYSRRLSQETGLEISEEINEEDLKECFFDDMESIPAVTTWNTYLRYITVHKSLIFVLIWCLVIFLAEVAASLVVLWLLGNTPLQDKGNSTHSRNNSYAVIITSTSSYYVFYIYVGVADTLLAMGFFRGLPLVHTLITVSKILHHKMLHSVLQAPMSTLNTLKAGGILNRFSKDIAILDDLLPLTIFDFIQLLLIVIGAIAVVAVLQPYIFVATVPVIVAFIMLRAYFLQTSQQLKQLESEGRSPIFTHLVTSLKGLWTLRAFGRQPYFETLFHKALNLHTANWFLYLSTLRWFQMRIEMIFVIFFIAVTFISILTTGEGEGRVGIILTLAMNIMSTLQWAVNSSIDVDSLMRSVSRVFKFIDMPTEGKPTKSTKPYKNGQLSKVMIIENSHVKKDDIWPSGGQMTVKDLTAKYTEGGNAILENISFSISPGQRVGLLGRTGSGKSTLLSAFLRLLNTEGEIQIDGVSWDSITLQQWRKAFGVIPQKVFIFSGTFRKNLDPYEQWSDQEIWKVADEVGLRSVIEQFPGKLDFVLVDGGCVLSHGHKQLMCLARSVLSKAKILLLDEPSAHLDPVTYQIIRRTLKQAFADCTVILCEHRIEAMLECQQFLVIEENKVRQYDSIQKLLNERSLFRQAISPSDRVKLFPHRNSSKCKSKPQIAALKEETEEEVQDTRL
Conditions: enteroid cells incubated with test compound 18-24 hours; acute 10 μM forskolin and 300 nM Compound III
Give measured EC50 for each item. Keep answers brief.

Hi, could you look up EC50 for each item in my list?
1. CC(C)(C)CCC1CCN(c2ccc3c(n2)N2C[C@H](CCCn4ccc(n4)S(=O)(=O)NC3=O)CC2(C)C)C1=O (stereo in doubt)
2. CC1(C)C[C@@H]2CCCNc3cccc(n3)S(=O)(=O)NC(=O)c3ccc(N4CC[C@H](OCCC5(C(F)(F)F)CC5)C4=O)nc3N1C2 (single isomer, unassigned) [Compound 172]
3. CC1(C)CCC2CNc3cccc(n3)S(=O)(=O)NC(=O)c3ccc(-n4ccc(OCCC5(C(F)(F)F)CC5)n4)nc3N21 (stereo not shown)
4. CC1(C)C[C@@H]2CCCNc3cccc(n3)S(=O)(=O)NC(=O)c3ccc(-n4ccc(OCCC5C(C)(C)C5(C)C)n4)nc3N1C2

["1 to 3 µM", "< 1 µM", "> 3 µM", "< 1 µM"]
